# procedure.details: Human HepG2 cell viability assay in 384 well format
# Assay type: toxicity, cell-based
# Parameters: dose 125 nL, time 70.5 hour; concentration not given beside the values
# conditions.used: HepG2 cells, read-out: Inhibition
Parameter cytotoxicity at 70.5 h: see the listing below.
Answer with the value and then the unit.

Take a look at these entries with their results.
Give recorded cytotoxicity at 70.5 h. `COC(=O)CN(C(=O)c1cccc(F)c1Cl)c1cccc(C)n1`
1.83%

Give a short answer stating reported cytotoxicity at 70.5 h for `Cc1ccsc1CNC(=O)Cc1c(C)nc2c(c1C)c(=O)[nH]n2C` .
-12.2%

Please look at this compound and report its cytotoxicity at 70.5 h: `COc1cccc(Nc2nc(N3CCCC3)nc3c2CNCC3)c1`
43.7%

Quickly give me recorded cytotoxicity at 70.5 h for `Fc1cccc(NCc2ncc[nH]2)c1`
-8.15%

State its cytotoxicity at 70.5 h: `CCS(=O)(=O)CC(=O)Nc1cc(-c2cccc(F)c2F)n[nH]1`
-9.86%

Shift focus to the following entry.
Hello, please tell me recorded cytotoxicity at 70.5 h for this one: CN1CCN(C(=O)CCn2nnc3ccccc32)CC(C(N)=O)C1 (stereo unspecified)
-1.08%

====

# procedure.details: Human HepG2 cell viability assay in 384 well format
# Assay type: toxicity, cell-based
# Parameters: dose 125 nL, time 70.5 hour; concentration not given beside the values
# conditions.used: HepG2 cells, read-out: Inhibition
Here, each record is paired with measured cytotoxicity at 70.5 h data.
Numeric only. Scale: %

In the examples that follow, each entry is paired with its recorded cytotoxicity at 70.5 h.
Annotate the compound Cc1ccnc(C(Nc2nccc(-c3ccc(C)nc3C)n2)C2CC2)c1 (stereo not given) with its measured cytotoxicity at 70.5 h.
-6.77

For the compound `Cc1ccc(C)c(NCc2nc3n(n2)CCCCC3)c1` , report cytotoxicity at 70.5 h.
-15.6

Read the entry `CCn1ncc(CNc2[nH]cnc3nncc2-3)c1C` and write its reported cytotoxicity at 70.5 h.
-13.8

For the compound COCCOc1ccc(CNC2CCc3ncnn3C2)cc1OC (stereo not given) , give its measured cytotoxicity at 70.5 h value.
-9.82

Identify measured cytotoxicity at 70.5 h corresponding to c1cncc(CN2CCc3c(nnn3CC3CC3)C2COCC2CC2)c1 (stereo not given)
-14.9

Tell us which cytotoxicity at 70.5 h value is on record for `Cn1cnc2c1CCN(Cc1csc(-c3ccsc3)n1)C2`
20.4

***
Please list cytotoxicity at 70.5 h recorded for the compound `CCc1nc(CN2CCCN(c3nc4ccccc4o3)CC2)no1`
6.35

Name the recorded cytotoxicity at 70.5 h of the compound listed here: `Cc1ccc(C(=O)N2Cc3c(CN4CCCCC4)nn(C)c3C2)cc1F`
36.2

Tell us which cytotoxicity at 70.5 h value is on record for `COc1ccc(CN(C)[C@@H]2COC[C@H]2c2ccc(F)cc2)c(OC)c1`
0.309

Hello, please tell me recorded cytotoxicity at 70.5 h for this one: `Cc1cnc(CN(C)C2CCN(CCc3ccccn3)CC2)cn1`
14.7

Please indicate cytotoxicity at 70.5 h recorded for `Cc1nn(C)c2c(N3CCCC3)nc(C3CC3)nc12`
-11.4

====

# procedure.details: Human HepG2 cell viability assay in 384 well format
# Assay type: toxicity, cell-based
# Parameters: dose 125 nL, time 70.5 hour; concentration not given beside the values
# conditions.used: HepG2 cells, read-out: Inhibition
Known cytotoxicity at 70.5 h of a selection of compounds
The answer is to be given in %; state only the numeric part.

Name the recorded cytotoxicity at 70.5 h of the compound listed here: Cc1cc(N2CCCC(N(C)C)C2)n2nccc2n1 (stereo not given)
9.89

Read off the recorded cytotoxicity at 70.5 h for `CCC[C@H]1CN(Cc2ccc(N(C)C)nc2)C[C@@H]1NC(=O)CSC`
-6.28

Give the reported cytotoxicity at 70.5 h for this compound. `CNC(=O)[C@@H]1[C@@H](c2ccccc2)CN2CCN(Cc3cc(C)no3)C[C@H]12`
-4.59

In one line, give reported cytotoxicity at 70.5 h of the entry `CCc1cccc(OCCCN(C)C(=O)CN2CCNC2=O)c1` .
0.78

Turning to the following compound.
Find the measured cytotoxicity at 70.5 h of Cn1ncnc1-c1ccnc(N2CCC(C(O)c3cccs3)CC2)n1 (stereo not given) and report it.
-10.9

====

Measured cytotoxicity at 70.5 h, listed per entry for reference.
# procedure.details: Human HepG2 cell viability assay in 384 well format
# Format: toxicity, cell-based
# Parameters: dose 125 nL, time 70.5 hour; concentration not given beside the values
# conditions.used: HepG2 cells, read-out: Inhibition
Answer in %, number only, no unit symbol.

Return cytotoxicity at 70.5 h for the following compound: `Cc1noc(C)c1CN1CCn2cc(CNc3ccccn3)nc2C1`
5.28

In one line, give reported cytotoxicity at 70.5 h of the entry `COCCC(=O)N1CCN(CC2CC2)c2ncccc2C1` .
8.88

// Input: `CCOc1ccccc1-c1cc2c(cc1C(N)=O)OCO2` . Output its cytotoxicity at 70.5 h only.
9.52

Please report cytotoxicity at 70.5 h for the following compound: COc1cccc(CN(C)C(C)c2ccon2)c1OCCn1ccnc1 (stereo unspecified)
-19.9

Others:
Tell me cytotoxicity at 70.5 h reported for `O=C(CSC1=NS(=O)(=O)c2cc(F)ccc2N1)Nc1ccc(Cl)c(Cl)c1`
19.7

State its cytotoxicity at 70.5 h for this compound: `CCS(=O)(=O)NCCCn1ncc2c(C)cccc21`
-1.77

Find the measured cytotoxicity at 70.5 h of `COc1cc(C(=O)NCCc2cccc(C)c2)on1` and report it.
2.66

Specify cytotoxicity at 70.5 h for Cc1nc(C2CCCN2Cc2ncc(C(C)C)o2)no1 (stereo unspecified) and stop.
42.3

Provide one value: measured cytotoxicity at 70.5 h of `CN(CC1(C)COC1)C(=O)c1cc(-c2cnn(C)c2)nc2ccccc12`
-6.09

Query cytotoxicity at 70.5 h for `Cc1nc2c(c(N[C@H](C(N)=O)C(C)C)n1)Cc1ccccc1OC2`
-11.2

Indicate the recorded cytotoxicity at 70.5 h value for this compound: CC(C)CCCC(C)NC(=O)c1ccc(OCC(N)=O)cc1 (stereo unspecified)
-6.3

====

# procedure.details: Human HepG2 cell viability assay in 384 well format
# Assay type: toxicity, cell-based
# Design: dose 125 nL, time 70.5 hour; concentration not given beside the values
# conditions.used: HepG2 cells, read-out: Inhibition
result.type: cytotoxicity at 70.5 h (%)
Write it as a number; the unit % goes unstated.

Assign cytotoxicity at 70.5 h to the following record: `COc1ccccc1CCC(=O)N1C[C@H](c2ccccc2)[C@@H](N)C1`
-8.71

Return value of cytotoxicity at 70.5 h for input `CCS(=O)(=O)N1CCO[C@H]2[C@H](Oc3ncccc3F)CC[C@@H]21` , no commentary.
-11.9

Specify cytotoxicity at 70.5 h for `CN(C)c1ccccc1CN1CCC(N2CCCC2=O)CC1` and stop.
17.8

Find the measured cytotoxicity at 70.5 h of `COc1ccccc1CN(C)C(=O)NCc1c(C)cc(C)[nH]c1=O` and report it.
-0.543

Provide measured cytotoxicity at 70.5 h value, entry: Cc1cc(C)n(C2CN(CC(O)c3ccc4c(c3)OCO4)C2)n1 (stereo unspecified)
-2.16

Look up and report measured cytotoxicity at 70.5 h for this entry: Cc1ccnc(N2CCN(C3CCS(=O)(=O)C3)CC2)n1 (stereo unspecified)
-13.6

Identify measured cytotoxicity at 70.5 h associated with O=C(NCc1nc(C2CCCCC2)no1)C1CC(=O)N(C2CC2)C1 (stereo unspecified)
5.86

Quick one: give measured cytotoxicity at 70.5 h for CC(NC(=O)Nc1ccc(OC2CCCC2)cc1)c1nc[nH]n1 (stereo unspecified)
12.8

Name the recorded cytotoxicity at 70.5 h of the item CN(Cc1cnn(C)c1)C(=O)CN1CCCCC1Cn1cncn1 (stereo unspecified) in your answer.
-7.41

Answer with the recorded cytotoxicity at 70.5 h of `O=C(c1ccc(-n2cccn2)nc1)N1CCC(Nc2cccnn2)CC1` only.
-18.2

Okay, now this molecule:
Using the record for CC(c1cccnc1)N(C)Cc1cc(O)c2cc(F)ccc2n1 (stereo unspecified) , state its measured cytotoxicity at 70.5 h.
-6.6

====

# procedure.details: Human HepG2 cell viability assay in 384 well format
# Format: toxicity, cell-based
# Parameters: dose 125 nL, time 70.5 hour; concentration not given beside the values
# conditions.used: HepG2 cells, read-out: Inhibition
result.type: cytotoxicity at 70.5 h (%)
// return numeric value only (unit: %, not printed)

Below are worked cases with known answers.
Dear colleague, please send me the reported cytotoxicity at 70.5 h for Cc1nccn1Cc1nnc(C2CCCN(c3ncccn3)C2)n1C (configuration not stated) when you can.
15.5

Specify reported cytotoxicity at 70.5 h for the compound shown: `COCCNC(=O)CN1CCN(c2nc(C)cs2)CC1`
-3.26

***
Tell us which cytotoxicity at 70.5 h value is on record for CCSc1cncc(N2CCC(C(=O)NC(C)C(C)C)CC2)n1 (configuration not stated)
-3.06

// fetch cytotoxicity at 70.5 h given entry `CN(C)C[C@@H]1[C@H]2CN(C(=O)c3cc(=O)[nH]c4ccc(F)cc34)C[C@@H]12`
22.8

Specify measured cytotoxicity at 70.5 h for CSCC(C)N(C)C(=O)c1nn(-c2ccc(F)cc2C)cc1O (configuration not stated) .
-10.1

Dear colleague, please send me the reported cytotoxicity at 70.5 h for CC(C)Cc1cc(C(=O)NCC2CCCN(Cc3ccco3)C2)on1 (configuration not stated) when you can.
-10.7

Give the reported value of cytotoxicity at 70.5 h for this record: Cc1ccc(S(=O)(=O)NC2CNC(=O)C2)cc1C (configuration not stated)
0.672

Identify measured cytotoxicity at 70.5 h corresponding to CCn1ncc2c1C(COC)CN(S(=O)(=O)N(C)C)C2 (configuration not stated)
-10.2

Please report cytotoxicity at 70.5 h for the following compound: `CCc1[nH]c2c(CNc3cncc(C(=O)N(C)C)n3)cc(C)cc2c1C`
27.8
